Hello, the source for this data is paper PMC9952648, in case you need it.

Catalogue of Initial rate of decrease, WS (per P450) values
Test system: rat liver microsomes (RLM)
Experiment: Aerobic incubation of nitroxides with rat liver microsomes and NADPH monitored by EPR
Settings: whole system: nitroxide 100 µM + RLM + NADPH, pH 7.4, 21 °C
Give the number; nmol·min^−1·nmol^−1 P450 is assumed, so skip it.

>>> number("CCC1(CC)CC(C(=O)O)C(CC)(CC)N1[O] (centres unmarked) [Nitroxide 3]")
0.46
>>> number("CCC1(CC)c2ccc(C(=O)O)cc2C(CC)(CC)N1[O] [Nitroxide 5]")
0.88
>>> number("CC1(C)CC(C(=O)O)C(C)(C)N1[O] (centres unmarked) [Nitroxide 2]")
1.2

Give recorded Initial rate of decrease, WS (per P450) with rat liver microsomes (RLM) for the following compound: CC1(C)CC(=O)CC(C)(C)N1[O] [Nitroxide 1, reference compound] 2.8

Same question, CCC1(CC)C=C(C(=O)O)C(CC)(CC)N1[O] [Nitroxide 4] this time 0.22

====

Test system: rat liver microsomes (RLM)
Test: Aerobic incubation of nitroxides with rat liver microsomes and NADPH monitored by EPR
Settings: whole system: nitroxide 100 µM + RLM + NADPH, pH 7.4, 21 °C
Is Initial rate of decrease, WS at least 2 nmol·min^−1·mg^−1 prot? Then true (1). If not, false (0).

>>> category("CCC1(CC)c2ccc(C(=O)O)cc2C(CC)(CC)N1[O] [Nitroxide 5]")
"true (1)"
>>> category("CCC1(CC)CC(C(=O)O)C(CC)(CC)N1[O] (centres unmarked) [Nitroxide 3]")
"false (0)"
>>> category("CC1(C)CC(C(=O)O)C(C)(C)N1[O] (centres unmarked) [Nitroxide 2]")
"true (1)"
>>> category("CCC1(CC)C=C(C(=O)O)C(CC)(CC)N1[O] [Nitroxide 4]")
"false (0)"

Next item in the queue.
Check the entry CC1(C)CC(=O)CC(C)(C)N1[O] [Nitroxide 1, reference compound] : does Initial rate of decrease, WS equal or exceed 2 nmol·min^−1·mg^−1 prot? true (1)

====

Test system: rat liver microsomes (RLM)
Assay: Aerobic incubation of nitroxides with rat liver microsomes and NADPH monitored by EPR
Conditions: whole system + diphenyliodonium chloride 100 μM, nitroxide 100 µM
Catalogue of Initial rate of decrease, +DPI values
Give the number; nmol·min^−1·mg^−1 prot is assumed, so skip it.

>>> number("CC1(C)CC(=O)CC(C)(C)N1[O] [Nitroxide 1, reference compound]")
5.1

Then there is this compound:
Entry CC1(C)CC(C(=O)O)C(C)(C)N1[O] (centres unmarked) [Nitroxide 2] has what Initial rate of decrease, +DPI? 2.1

====

Test system: rat liver microsomes (RLM)
Assay: Aerobic incubation of nitroxides with rat liver microsomes and NADPH monitored by EPR
Conditions: without RLM, nitroxide 100 µM
Marks after values point to notes of the source that are not given here.
property: Initial rate of decrease, -RLM

Below: 4 compounds and their reported Initial rate of decrease, -RLM.
>>> result("CCC1(CC)CC(C(=O)O)C(CC)(CC)N1[O] (centres unmarked) [Nitroxide 3]")
"0.0 ** nmol·min^−1·mg^−1 prot"
>>> result("CC1(C)CC(=O)CC(C)(C)N1[O] [Nitroxide 1, reference compound]")
"0.0 *** nmol·min^−1·mg^−1 prot"
>>> result("CC1(C)CC(C(=O)O)C(C)(C)N1[O] (centres unmarked) [Nitroxide 2]")
"0.0 ** nmol·min^−1·mg^−1 prot"
>>> result("CCC1(CC)c2ccc(C(=O)O)cc2C(CC)(CC)N1[O] [Nitroxide 5]")
"0.0 *** nmol·min^−1·mg^−1 prot"

Entry CCC1(CC)C=C(C(=O)O)C(CC)(CC)N1[O] [Nitroxide 4] has what Initial rate of decrease, -RLM? 0.0 ** nmol·min^−1·mg^−1 prot
